Can you tell me % of WT kcat/KM for the items I'm about to list?
molecular target: Factor X, P00742
Sequence (P00742 whole entry, looked up): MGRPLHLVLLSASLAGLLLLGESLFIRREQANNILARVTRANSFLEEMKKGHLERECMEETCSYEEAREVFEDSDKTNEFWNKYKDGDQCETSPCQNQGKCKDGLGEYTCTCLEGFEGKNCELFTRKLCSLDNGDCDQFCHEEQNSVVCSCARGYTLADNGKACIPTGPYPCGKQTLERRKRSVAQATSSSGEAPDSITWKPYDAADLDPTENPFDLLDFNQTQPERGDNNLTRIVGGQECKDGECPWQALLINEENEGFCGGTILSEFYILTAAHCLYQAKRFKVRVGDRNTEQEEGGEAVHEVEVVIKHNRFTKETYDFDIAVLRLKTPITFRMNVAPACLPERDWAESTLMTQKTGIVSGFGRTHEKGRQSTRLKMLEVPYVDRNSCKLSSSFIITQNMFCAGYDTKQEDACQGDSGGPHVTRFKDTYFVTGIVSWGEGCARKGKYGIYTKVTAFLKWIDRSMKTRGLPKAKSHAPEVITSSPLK
Value expressed in %; do not type the unit.

Prompt: Fill in the blank: the reported % of WT kcat/KM of FIXa-K247N/N249S/R318Y/R338E/R403E (protein) chain 1: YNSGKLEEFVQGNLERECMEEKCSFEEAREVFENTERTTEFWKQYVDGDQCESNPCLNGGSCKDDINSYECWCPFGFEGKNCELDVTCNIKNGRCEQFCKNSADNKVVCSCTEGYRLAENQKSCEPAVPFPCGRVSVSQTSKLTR chain 2: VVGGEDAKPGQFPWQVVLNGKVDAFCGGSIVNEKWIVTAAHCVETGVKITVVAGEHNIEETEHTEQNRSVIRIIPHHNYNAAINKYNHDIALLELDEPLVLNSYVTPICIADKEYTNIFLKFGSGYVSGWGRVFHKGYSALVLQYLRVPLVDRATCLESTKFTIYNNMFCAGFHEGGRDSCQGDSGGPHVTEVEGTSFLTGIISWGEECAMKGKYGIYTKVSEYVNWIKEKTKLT is ____.
Response: 496

Prompt: How about this protein: FIXa-K228N/K247N/N249S (protein) chain 1: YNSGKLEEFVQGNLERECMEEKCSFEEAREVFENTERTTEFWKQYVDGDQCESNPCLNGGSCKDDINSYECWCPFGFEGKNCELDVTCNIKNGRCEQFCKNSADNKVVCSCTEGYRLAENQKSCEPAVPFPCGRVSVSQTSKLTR chain 2: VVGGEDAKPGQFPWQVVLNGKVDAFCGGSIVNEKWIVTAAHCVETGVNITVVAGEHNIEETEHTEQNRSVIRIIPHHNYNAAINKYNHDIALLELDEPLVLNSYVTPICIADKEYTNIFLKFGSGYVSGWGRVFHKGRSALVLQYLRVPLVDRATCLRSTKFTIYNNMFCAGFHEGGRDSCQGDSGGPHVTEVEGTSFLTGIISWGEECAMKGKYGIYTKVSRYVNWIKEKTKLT
Response: 86

Prompt: How about this protein: FIXa-Y155F/N260S/R318Y/R338E/R403E/E410N (protein) chain 1: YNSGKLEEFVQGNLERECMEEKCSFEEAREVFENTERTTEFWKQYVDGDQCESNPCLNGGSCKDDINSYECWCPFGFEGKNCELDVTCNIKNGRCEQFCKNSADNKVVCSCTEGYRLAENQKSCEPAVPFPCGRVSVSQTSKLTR chain 2: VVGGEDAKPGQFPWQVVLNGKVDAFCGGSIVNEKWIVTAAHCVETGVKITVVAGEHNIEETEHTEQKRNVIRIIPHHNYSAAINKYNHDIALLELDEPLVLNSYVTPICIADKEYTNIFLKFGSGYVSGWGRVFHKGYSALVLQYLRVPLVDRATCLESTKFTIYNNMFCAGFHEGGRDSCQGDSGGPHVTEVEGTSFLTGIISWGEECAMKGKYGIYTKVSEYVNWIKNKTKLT
Response: 156

Prompt: How about this protein: FIXa R318Y/R338E/T412A (protein) chain 1: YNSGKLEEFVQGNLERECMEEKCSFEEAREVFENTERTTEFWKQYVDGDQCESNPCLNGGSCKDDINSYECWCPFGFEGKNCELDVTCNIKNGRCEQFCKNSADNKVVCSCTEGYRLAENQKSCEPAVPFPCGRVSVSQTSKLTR chain 2: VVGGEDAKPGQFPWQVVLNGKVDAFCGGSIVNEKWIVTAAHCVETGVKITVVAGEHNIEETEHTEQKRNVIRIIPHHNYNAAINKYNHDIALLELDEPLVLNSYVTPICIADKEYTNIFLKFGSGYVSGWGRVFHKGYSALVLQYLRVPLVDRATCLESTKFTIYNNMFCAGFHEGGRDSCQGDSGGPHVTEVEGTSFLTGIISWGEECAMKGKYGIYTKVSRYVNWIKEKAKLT
Response: 642

Prompt: How about this protein: FIXa-R318Y/R338E/E410N (mature FIX numbering) (protein) chain 1: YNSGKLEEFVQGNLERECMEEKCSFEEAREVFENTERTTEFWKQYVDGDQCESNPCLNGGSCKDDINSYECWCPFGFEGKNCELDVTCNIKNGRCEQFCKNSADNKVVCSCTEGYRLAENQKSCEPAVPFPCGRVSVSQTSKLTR chain 2: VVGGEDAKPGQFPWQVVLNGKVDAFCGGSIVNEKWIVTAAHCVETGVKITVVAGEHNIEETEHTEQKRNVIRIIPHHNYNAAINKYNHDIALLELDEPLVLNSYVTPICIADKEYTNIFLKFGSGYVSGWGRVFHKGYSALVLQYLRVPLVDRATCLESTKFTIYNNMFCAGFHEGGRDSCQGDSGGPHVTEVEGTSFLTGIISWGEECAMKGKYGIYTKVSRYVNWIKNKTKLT
Response: 770

Prompt: How about this protein: FIXa R318Y/R338E/T343R/R403E/E410N (protein) chain 1: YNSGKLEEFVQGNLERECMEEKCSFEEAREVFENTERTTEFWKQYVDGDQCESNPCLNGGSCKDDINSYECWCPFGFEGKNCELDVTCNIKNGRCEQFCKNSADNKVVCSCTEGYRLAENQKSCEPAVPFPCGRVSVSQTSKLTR chain 2: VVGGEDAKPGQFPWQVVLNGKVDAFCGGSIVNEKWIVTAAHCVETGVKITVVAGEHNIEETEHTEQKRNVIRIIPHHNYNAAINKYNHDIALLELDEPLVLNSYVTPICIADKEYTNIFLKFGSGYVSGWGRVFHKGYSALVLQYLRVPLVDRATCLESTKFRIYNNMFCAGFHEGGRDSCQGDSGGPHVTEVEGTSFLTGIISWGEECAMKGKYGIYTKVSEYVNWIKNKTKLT
Response: 907

Prompt: How about this protein: FIXa D104N/K106S/N260S/R318Y/R338E/R403E/E410N (protein) chain 1: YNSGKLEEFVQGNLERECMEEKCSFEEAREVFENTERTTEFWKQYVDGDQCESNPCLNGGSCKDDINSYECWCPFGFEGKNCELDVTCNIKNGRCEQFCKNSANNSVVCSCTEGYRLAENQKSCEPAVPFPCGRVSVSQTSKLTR chain 2: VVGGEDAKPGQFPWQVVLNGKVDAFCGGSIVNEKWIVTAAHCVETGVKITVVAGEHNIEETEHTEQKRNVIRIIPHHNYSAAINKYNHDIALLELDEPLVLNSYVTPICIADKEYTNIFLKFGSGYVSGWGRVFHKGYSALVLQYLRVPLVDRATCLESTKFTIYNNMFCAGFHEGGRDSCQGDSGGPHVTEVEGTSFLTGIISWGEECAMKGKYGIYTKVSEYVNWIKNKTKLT
Response: 190
